Please go through the items and note down their half-life.
# Assay overview: stability in human liver microsomes
# Type: in vitro ADME
# Run conditions: read-out: Microsome t1/2, Human
# Description: Table 1 Stability of compounds 6, 7 and 10 in human and mouse plasma and liver microsomes. | column: Microsome (t1/2 = Min) / Human
Report only the number, with the unit min understood.

Endpoint output: half-life of CSc1ccc(NC(C)c2cc3ccccc3n2C)cc1 (stereo not drawn) . Value?
45

I am curious: what half-life value has been reported for CSc1ccc(OC(C)c2cc3ccccc3n2C)cc1 (stereo not drawn) ?
35

I have this compound here, CC(Nc1ccc(O)cc1)c1cc2ccccc2n1C (stereo not drawn) , and I need its recorded half-life.
118

---

Consider the following compounds; for each one, report its half-life.
# Assay overview: stability in mouse plasma
# Assay type: in vitro ADME
# Run conditions: read-out: Plasma t1/2, Mouse

What value of half-life has been reported for the following compound? CSc1ccc(NC(C)c2cc3ccccc3n2C)cc1 (stereo not drawn) [Compound 7]
> 2 h

Name the reported half-life value associated with the compound CSc1ccc(OC(C)c2cc3ccccc3n2C)cc1 (stereo not drawn) [Compound 10]
> 2 h

Consider the compound CC(Nc1ccc(O)cc1)c1cc2ccccc2n1C (stereo not drawn) [Compound 6] and give its measured half-life.
0.45 h

---

# Test system: PC3 cells
# Assay overview: transwell migration assay, PC3 cells
# Type: cell-based, human
# Run conditions: compound alone, concentration range 0.1 to 100 μM, 5 h, compared with 14
Measured parameter: effect on PC3 cell migration (migration index)

* CC(Oc1ccc(S(C)(=O)=O)cc1)c1cc2ccccc2n1C (stereo not drawn) | less effective
* CC(Oc1ccc([S+](C)[O-])cc1)c1cc2ccccc2n1C (stereo not drawn) | less effective
